Biological target: T1, CLL1 (UniProt Q5QGZ9 1-265, limits assumed)
T1 sequence (looked up): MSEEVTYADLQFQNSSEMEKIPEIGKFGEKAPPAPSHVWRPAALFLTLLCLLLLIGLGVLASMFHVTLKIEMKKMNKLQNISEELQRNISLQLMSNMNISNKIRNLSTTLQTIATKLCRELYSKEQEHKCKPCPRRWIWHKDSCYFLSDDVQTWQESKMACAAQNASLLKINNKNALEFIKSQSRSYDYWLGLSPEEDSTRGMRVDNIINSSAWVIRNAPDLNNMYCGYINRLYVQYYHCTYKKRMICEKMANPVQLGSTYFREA
Assay: cell-based or functional assay
What EC50 of cytotoxicity, long hinge CAR was measured for each of the following?
Report the figure in pM without appending any unit label.

input: Report EC50 of cytotoxicity, long hinge CAR for anti-CLL1 (1075.7) Fab switch B (HCNT3) (Fab, V domains shown) VH: DIQLQESGPGLVKPSQSLSLTCSVTGYSITSAYYWNWIRQFPGNKLEWMGYISYDGRNNYNPSLKNRISITRDTSKNQFFLKLNSVTTEDTATYYCAKEGDYDVGNYYAMDYWGQGTSVTVSS VL: ENVLTQSPAIMSASPGEKVTMTCRASSNVISSYVHWYQQRSGASPKLWIYSTSNLASGVPARFSGSGSGTSYSLTISSVEAEDAATYYCQQYSGYPLTFGAGTKLELKR please.
output: 1.3

input: Report EC50 of cytotoxicity, long hinge CAR for anti-CLL1 (1075.7) Fab switch A (LCNT1) (Fab, V domains shown) VH: DIQLQESGPGLVKPSQSLSLTCSVTGYSITSAYYWNWIRQFPGNKLEWMGYISYDGRNNYNPSLKNRISITRDTSKNQFFLKLNSVTTEDTATYYCAKEGDYDVGNYYAMDYWGQGTSVTVSS VL: ENVLTQSPAIMSASPGEKVTMTCRASSNVISSYVHWYQQRSGASPKLWIYSTSNLASGVPARFSGSGSGTSYSLTISSVEAEDAATYYCQQYSGYPLTFGAGTKLELKR please.
output: 4.1

input: Report EC50 of cytotoxicity, long hinge CAR for anti-CLL1 (1075.7) Fab switch C (heavy chain C terminus) (Fab, V domains shown) VH: DIQLQESGPGLVKPSQSLSLTCSVTGYSITSAYYWNWIRQFPGNKLEWMGYISYDGRNNYNPSLKNRISITRDTSKNQFFLKLNSVTTEDTATYYCAKEGDYDVGNYYAMDYWGQGTSVTVSS VL: ENVLTQSPAIMSASPGEKVTMTCRASSNVISSYVHWYQQRSGASPKLWIYSTSNLASGVPARFSGSGSGTSYSLTISSVEAEDAATYYCQQYSGYPLTFGAGTKLELKR please.
output: 3.3

input: Report EC50 of cytotoxicity, long hinge CAR for anti-CLL1 (1075.7) Fab bivalent switch A + B (Fab, V domains shown) VH: DIQLQESGPGLVKPSQSLSLTCSVTGYSITSAYYWNWIRQFPGNKLEWMGYISYDGRNNYNPSLKNRISITRDTSKNQFFLKLNSVTTEDTATYYCAKEGDYDVGNYYAMDYWGQGTSVTVSS VL: ENVLTQSPAIMSASPGEKVTMTCRASSNVISSYVHWYQQRSGASPKLWIYSTSNLASGVPARFSGSGSGTSYSLTISSVEAEDAATYYCQQYSGYPLTFGAGTKLELKR please.
output: 0.6
